Biological target: T1, LRP1 CR3-5 (UniProt Q07954 852-973, limits assumed)
T1 construct: domain: CR3-5; also called LRP1 CR domains
T1 sequence (Q07954 852-973 limits assumed): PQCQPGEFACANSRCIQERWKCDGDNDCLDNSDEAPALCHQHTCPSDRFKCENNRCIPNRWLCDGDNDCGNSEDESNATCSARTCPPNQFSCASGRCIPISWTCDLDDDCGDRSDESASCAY
Assay: solid-phase binding, OD at highest concentration against highest OD of all ligands
I'd be grateful if you could share measured % max (percent of maximum binding) for these entries.
One number for each entry, in %.

Binder	Readout type	Experimental result
MegaRAP1 d3 K251E (ligand, also called MegaRAP1 K251E) GLDRLRRVSHQGYTTEAKFEEPRVIDLWDLAQSANLTDKELEAFREELKYFEAKIEAHNHYQKQLEIAHEELRHAESVGDGERVSRSREKHALLEGRTKELGYTVKKHLQDLSGRISRARHNEL	% max (percent of maximum binding)	2

State the recorded % max (percent of maximum binding) for every item in the following list.
1. RAP d3 E251K, K256A, K270E (ligand, also called RAP E251K, K256A, K270E) GLDRLRRVSHQGYSTEAEFEEPRVIDLWDLAQSANLTDKELEAFREELKHFKAKIEAHNHYQKQLEIAHEELRHAESVGDGERVSRSREKHALLEGRTKELGYTVKKHLQDLSGRISRARHNEL
2. RAP d3 E217K (ligand, also called RAP E217K) GLDRLRRVSHQGYSTEAKFEEPRVIDLWDLAQSANLTDKELEAFREELKHFEAKIEKHNHYQKQLEIAHEKLRHAESVGDGERVSRSREKHALLEGRTKELGYTVKKHLQDLSGRISRARHNEL
3. MegaRAP1 d3 A256K (ligand, also called MegaRAP1 A256K) GLDRLRRVSHQGYTTEAKFEEPRVIDLWDLAQSANLTDKELEAFREELKYFKAKIEKHNHYQKQLEIAHEELRHAESVGDGERVSRSREKHALLEGRTKELGYTVKKHLQDLSGRISRARHNEL
4. RAP d3 E251K, K270E (ligand, also called RAP E251K, K270E) GLDRLRRVSHQGYSTEAEFEEPRVIDLWDLAQSANLTDKELEAFREELKHFKAKIEKHNHYQKQLEIAHEELRHAESVGDGERVSRSREKHALLEGRTKELGYTVKKHLQDLSGRISRARHNEL

A)
1. 2
2. 91
3. 6
4. 4
